# System: Staphylococcus epidermidis
# Assay method text: Bactericidal activity against methicillin-resistant Staphylococcus epidermidis isolate 422/10 after 24 hrs
# Type: functional
# Details: isolate 422/10, 24 h, read-out: MBC99.9
Test readout: MBC (µg/mL)
Numbers only, in µg/mL.

[
  {
    "Molecule": "O=C(O)c1cn(C2CC2)c2cc(N3CCNCC3)c(F)cc2c1=O [CIPROFLOXACIN]",
    "Test readout": "MBC",
    "Unit tag": "µg/mL",
    "Meas value": 64
  }
]

--- query ---
Report value only: MBC, Staphylococcus epidermidis, CC[C@@H](C(=O)[C@@H](C)[C@@H](O)[C@H](C)[C@@H]1O[C@@H]([C@@H](CC)C(=O)N(CC)CC)CC[C@@H]1C)[C@H]1O[C@]2(C=C[C@@H](O)[C@]3(CC[C@@](C)([C@H]4CC[C@](O)(CC)[C@H](C)O4)O3)O2)[C@H](C)C[C@@H]1C
256

====

Give measured MBC for each item. Keep answers brief.
# System: Staphylococcus aureus
# Assay method text: Bactericidal activity against Staphylococcus aureus ATCC 6538 after 24 hrs
# Type: functional
# Details: ATCC 6538, 24 h, read-out: MBC99.9
Answers are plain numbers, in µg/mL.

[
  {
    "Item smiles": "CC[C@@H](C(=O)[C@@H](C)[C@@H](O)[C@H](C)[C@@H]1O[C@@H]([C@@H](CC)C(=O)N(CCO)CCO)CC[C@@H]1C)[C@H]1O[C@]2(C=C[C@@H](O)[C@]3(CC[C@@](C)([C@H]4CC[C@](O)(CC)[C@H](C)O4)O3)O2)[C@H](C)C[C@@H]1C",
    "MBC (µg/mL)": 256
  }
]

Report value only: MBC, Staphylococcus aureus, CC[C@@H](C(=O)[C@@H](C)[C@@H](O)[C@H](C)[C@@H]1O[C@@H]([C@@H](CC)C(=O)N(CC)CC)CC[C@@H]1C)[C@H]1O[C@]2(C=C[C@@H](O)[C@]3(CC[C@@](C)([C@H]4CC[C@](O)(CC)[C@H](C)O4)O3)O2)[C@H](C)C[C@@H]1C
64

====

Give measured MIC for each item. Keep answers brief.
# Tested on: Staphylococcus epidermidis
# Assay method text: Antimicrobial activity against Staphylococcus epidermidis ATCC 12228 after 18 hrs by twofold serial broth dilution method
# Type: functional
# Details: ATCC 12228, 18 h
Give bare numbers, in µg/mL.

For each of the items listed, what is its MIC?
1. CC[C@@H](C(=O)[C@@H](C)[C@@H](O)[C@H](C)[C@@H]1O[C@@H]([C@@H](CC)C(=O)N(Cc2ccccc2)Cc2ccccc2)CC[C@@H]1C)[C@H]1O[C@]2(C=C[C@@H](O)[C@]3(CC[C@@](C)([C@H]4CC[C@](O)(CC)[C@H](C)O4)O3)O2)[C@H](C)C[C@@H]1C
2. CCCN(CCC)C(=O)[C@H](CC)[C@H]1CC[C@H](C)[C@H]([C@@H](C)[C@H](O)[C@H](C)C(=O)[C@H](CC)[C@H]2O[C@]3(C=C[C@@H](O)[C@]4(CC[C@@](C)([C@H]5CC[C@](O)(CC)[C@H](C)O5)O4)O3)[C@H](C)C[C@@H]2C)O1
3. CCCCN(CCCC)C(=O)[C@H](CC)[C@H]1CC[C@H](C)[C@H]([C@@H](C)[C@H](O)[C@H](C)C(=O)[C@H](CC)[C@H]2O[C@]3(C=C[C@@H](O)[C@]4(CC[C@@](C)([C@H]5CC[C@](O)(CC)[C@H](C)O5)O4)O3)[C@H](C)C[C@@H]2C)O1

1: 16; 2: 2; 3: 8

For each of the items listed, what is its MIC?
1. CC[C@@H](C(=O)[C@@H](C)[C@@H](O)[C@H](C)[C@@H]1O[C@@H]([C@@H](CC)C(=O)N2CCOCC2)CC[C@@H]1C)[C@H]1O[C@]2(C=C[C@@H](O)[C@]3(CC[C@@](C)([C@H]4CC[C@](O)(CC)[C@H](C)O4)O3)O2)[C@H](C)C[C@@H]1C
2. CC[C@@H](C(=O)[C@@H](C)[C@@H](O)[C@H](C)[C@@H]1O[C@@H]([C@@H](CC)C(=O)N(CCOC)CCOC)CC[C@@H]1C)[C@H]1O[C@]2(C=C[C@@H](O)[C@]3(CC[C@@](C)([C@H]4CC[C@](O)(CC)[C@H](C)O4)O3)O2)[C@H](C)C[C@@H]1C

128
128

====

Give measured MIC for each item. Keep answers brief.
# System: Staphylococcus aureus
# Assay method text: Antimicrobial activity against Staphylococcus aureus ATCC 25923 after 18 hrs by twofold serial broth dilution method
# Assay type: functional
# Details: ATCC 25923, 18 h
Give bare numbers, in µg/mL.

[
  {
    "Item smiles": "CC[C@@H](C(=O)[C@@H](C)[C@@H](O)[C@H](C)[C@@H]1O[C@@H]([C@@H](CC)C(=O)N2CCOCC2)CC[C@@H]1C)[C@H]1O[C@]2(C=C[C@@H](O)[C@]3(CC[C@@](C)([C@H]4CC[C@](O)(CC)[C@H](C)O4)O3)O2)[C@H](C)C[C@@H]1C",
    "Unit tag": "µg/mL",
    "MIC": 128
  },
  {
    "Item smiles": "CC[C@@H](C(=O)[C@@H](C)[C@@H](O)[C@H](C)[C@@H]1O[C@@H]([C@@H](CC)C(=O)N(CC)CC)CC[C@@H]1C)[C@H]1O[C@]2(C=C[C@@H](O)[C@]3(CC[C@@](C)([C@H]4CC[C@](O)(CC)[C@H](C)O4)O3)O2)[C@H](C)C[C@@H]1C",
    "Unit tag": "µg/mL",
    "MIC": 2
  },
  {
    "Item smiles": "CC[C@@H](C(=O)[C@@H](C)[C@@H](O)[C@H](C)[C@@H]1O[C@@H]([C@@H](CC)C(=O)N(Cc2ccccc2)Cc2ccccc2)CC[C@@H]1C)[C@H]1O[C@]2(C=C[C@@H](O)[C@]3(CC[C@@](C)([C@H]4CC[C@](O)(CC)[C@H](C)O4)O3)O2)[C@H](C)C[C@@H]1C",
    "Unit tag": "µg/mL",
    "MIC": 8
  }
]

--- query ---
Read off the recorded MIC for O=C(O)c1cn(C2CC2)c2cc(N3CCNCC3)c(F)cc2c1=O
0.5

====

# Test system: Bacillus subtilis
# Assay method text: Genotoxicity in rec-negative Bacillus subtilis M45 at 2 ug/9 mm disc after 24 hrs by disc diffusion method
# Type: toxicity, organism-based
Test readout: diameter of the inhibition zone (DIZ) (mm)
Give bare numbers, in mm.

Read off the recorded diameter of the inhibition zone (DIZ) for CC[C@@H](C(=O)[C@@H](C)[C@@H](O)[C@H](C)[C@@H]1O[C@@H]([C@@H](CC)C(=O)O)CC[C@@H]1C)[C@H]1O[C@]2(C=C[C@@H](O)[C@]3(CC[C@@](C)([C@H]4CC[C@](O)(CC)[C@H](C)O4)O3)O2)[C@H](C)C[C@@H]1C
32

====

# Test system: Bacillus subtilis
# Assay method text: Genotoxicity in rec-negative Bacillus subtilis M45 at 2 ug/9 mm disc after 24 hrs by disc diffusion method
# Format: toxicity, organism-based
Give measured diameter of the inhibition zone (DIZ) for each item. Keep answers brief.
One number for each entry, in mm.

For each of the items listed, what is its diameter of the inhibition zone (DIZ)?
1. CC[C@@H](C(=O)[C@@H](C)[C@@H](O)[C@H](C)[C@@H]1O[C@@H]([C@@H](CC)C(=O)N(CC)CC)CC[C@@H]1C)[C@H]1O[C@]2(C=C[C@@H](O)[C@]3(CC[C@@](C)([C@H]4CC[C@](O)(CC)[C@H](C)O4)O3)O2)[C@H](C)C[C@@H]1C
2. CC[C@@H](C(=O)[C@@H](C)[C@@H](O)[C@H](C)[C@@H]1O[C@@H]([C@@H](CC)C(=O)N(CCO)CCO)CC[C@@H]1C)[C@H]1O[C@]2(C=C[C@@H](O)[C@]3(CC[C@@](C)([C@H]4CC[C@](O)(CC)[C@H](C)O4)O3)O2)[C@H](C)C[C@@H]1C
3. CC[C@@H](C(=O)[C@@H](C)[C@@H](O)[C@H](C)[C@@H]1O[C@@H]([C@@H](CC)C(=O)N(Cc2ccccc2)Cc2ccccc2)CC[C@@H]1C)[C@H]1O[C@]2(C=C[C@@H](O)[C@]3(CC[C@@](C)([C@H]4CC[C@](O)(CC)[C@H](C)O4)O3)O2)[C@H](C)C[C@@H]1C
4. CCCN(CCC)C(=O)[C@H](CC)[C@H]1CC[C@H](C)[C@H]([C@@H](C)[C@H](O)[C@H](C)C(=O)[C@H](CC)[C@H]2O[C@]3(C=C[C@@H](O)[C@]4(CC[C@@](C)([C@H]5CC[C@](O)(CC)[C@H](C)O5)O4)O3)[C@H](C)C[C@@H]2C)O1

26
29
20
26
